Assay: P-glycoprotein substrates identified in KB-8-5-11 adenocarcinoma cell line, qHTS therapeutic library screen (AID 1346987); further: nearly all actives have a fitted effect of over 65% in size
Conditions: KB-8-5-11 (P-gp overexpressing) viability, CellTiter-Glo, 72 h; series mostly up to 44.5 µM
Inconclusive results are not listed. Calls of active or inactive are those of the source. The call rests on the fitted dose curve; in most records, active means well fitted inhibition curve with a large enough effect; inconclusive means small, poorly fitted or top-dose-only effect; inactive means flat fitted curve, though single readings scatter.
READOUT_KIND: outcome

| SMILES_STRUCTURE | READOUT_KIND | RESULT |
| --- | --- | --- |
| CO/N=C(\C(=O)N[C@@H]1C(=O)N2C(C(=O)[O-])=C(C[n+]3cccc4c3CCC4)CS[C@H]12)c1csc(N)n1 | outcome | inactive |
| O=C1c2ccccc2C(=O)C1c1ccc(Cl)cc1 | outcome | inactive |
| Nc1ncnc2c1ncn2CCOCP(=O)(O)O | outcome | inactive |
